Condition Description: siRNA; note: test system not given here
HELM strings list units from the 5' end as sugar, base in round brackets, then linkage (d deoxyribose, r ribose, m 2'-O-methyl, p phosphodiester). Strings are as the collection lists them, not checked against the first reports. ss, as = sense and antisense strand; [lna] = locked nucleic acid (LNA); [fl2r] = 2'-fluoro
Attribute Measured: target mRNA knockdown (%)

RNA1{[fl2r](G)p.m(A)p.[fl2r](C)p.m(G)p.[fl2r](U)p.m(A)p.[fl2r](A)p.m(A)p.[fl2r](C)p.m(G)p.[fl2r](G)p.m(C)p.[fl2r](C)p.m(A)p.[fl2r](C)p.m(A)p.[fl2r](A)p.m(G)p.[fl2r](U)p.m(U)p.[fl2r](C)}|RNA2{r(A)p.r(C)p.r(U)p.r(U)p.r(G)p.r(U)p.r(G)p.r(G)p.r(C)p.r(C)p.r(G)p.r(U)p.r(U)p.r(U)p.r(A)p.r(C)p.r(G)p.r(U)p.[lna](C)p.[lna](G)p.r(C)}$$$RNA1{StrandType:ss}|RNA2{StrandType:as}$ | 84.4

---

Condition Description: siRNA
HELM strings list units from the 5' end as sugar, base in round brackets, then linkage (d deoxyribose, r ribose, m 2'-O-methyl, p phosphodiester). Strings are as the collection lists them, not checked against the first reports. ss, as = sense and antisense strand
Attribute Measured: target mRNA knockdown (%)

RNA1{m(A)p.r(G)p.m(U)p.r(C)p.m(C)p.r(C)p.m(U)p.r(G)p.m(G)p.r(A)p.m(G)p.r(C)p.m(C)p.r(U)p.r(U)p.r(A)p.m(A)p.r(A)p.m(C)p.r(T)p.r(T)}|RNA2{r(G)p.r(U)p.r(U)p.r(U)p.r(A)p.r(A)p.r(G)p.r(G)p.r(C)p.r(U)p.r(C)p.r(C)p.r(A)p.r(G)p.r(G)p.r(G)p.r(A)p.r(C)p.r(U)p.r(T)p.r(T)}$$$RNA1{StrandType:ss}|RNA2{StrandType:as}$ | 68
RNA1{r(U)p.m(U)p.r(A)p.r(A)p.r(G)p.r(G)p.r(A)p.r(G)p.r(A)p.r(A)p.r(G)p.r(C)p.m(U)p.r(G)p.r(A)p.r(C)p.r(G)p.r(G)p.r(C)p.r(T)p.r(T)}|RNA2{r(G)p.r(C)p.r(C)p.r(G)p.r(U)p.m(C)p.r(A)p.r(G)p.r(C)p.r(U)p.r(U)p.r(C)p.r(U)p.r(C)p.r(C)p.r(U)p.m(U)p.r(A)p.r(A)p.r(T)p.r(T)}$$$RNA1{StrandType:ss}|RNA2{StrandType:as}$ | 67
RNA1{m(A)p.r(U)p.m(C)p.r(U)p.m(A)p.r(C)p.m(C)p.r(C)p.m(A)p.r(G)p.m(C)p.r(U)p.m(C)p.r(U)p.m(C)p.r(C)p.m(C)p.r(U)p.m(U)p.r(T)p.r(T)}|RNA2{r(A)p.r(A)p.r(G)p.r(G)p.r(G)p.r(A)p.r(G)p.r(A)p.r(G)p.r(C)p.m(U)p.r(G)p.r(G)p.r(G)p.m(U)p.r(A)p.r(G)p.r(A)p.m(U)p.r(T)p.r(T)}$$$RNA1{StrandType:ss}|RNA2{StrandType:as}$ | 43

---

# target mRNA knockdown annotations
Condition Description: siRNA
HELM strings list units from the 5' end as sugar, base in round brackets, then linkage (d deoxyribose, r ribose, m 2'-O-methyl, p phosphodiester). Strings are as the collection lists them, not checked against the first reports. ss, as = sense and antisense strand; [hna] = hexitol nucleic acid
Attribute Measured: target mRNA knockdown (%)

RNA1{r(G)p.r(C)p.r(U)p.r(U)p.r(U)p.r(A)p.r(A)p.r(G)p.r(G)p.r(A)p.r(A)p.r(C)p.r(U)p.r(G)p.r(G)p.r(A)p.r(A)p.r(G)p.r(G)p.r(T)p.r(T)}|RNA2{r(C)p.r(C)p.r(U)p.r(U)p.r(C)p.r(C)p.r(A)p.r(G)p.r(U)p.r(U)p.r(C)p.r(C)p.r(U)p.m(U)p.r(A)p.r(A)p.r(A)p.r(G)p.r(C)p.r(T)p.r(T)}$$$RNA1{StrandType:ss}|RNA2{StrandType:as}$ | 37
RNA1{r(G)p.r(A)p.r(C)p.r(G)p.r(U)p.r(A)p.r(A)p.r(A)p.r(C)p.r(G)p.r(G)p.r(C)p.r(C)p.r(A)p.r(C)p.r(A)p.r(A)p.r(G)p.[hna](U)p.[hna](U)p.r(C)}|RNA2{r(A)p.m(C)p.r(U)p.r(U)p.r(G)p.r(U)p.r(G)p.r(G)p.r(C)p.r(C)p.r(G)p.r(U)p.r(U)p.r(U)p.r(A)p.r(C)p.r(G)p.r(U)p.r(C)p.r(G)p.r(C)}$$$RNA1{StrandType:ss}|RNA2{StrandType:as}$ | 57

---

# target mRNA knockdown annotations
Condition Description: siRNA
HELM strings list units from the 5' end as sugar, base in round brackets, then linkage (d deoxyribose, r ribose, m 2'-O-methyl, p phosphodiester). Strings are as the collection lists them, not checked against the first reports. ss, as = sense and antisense strand; [una] = unlocked nucleic acid; [hna] = hexitol nucleic acid; [s4r] = 4'-thioribose; [fl2r] = 2'-fluoro
Attribute Measured: target mRNA knockdown (%)

RNA1{[s4r](C)p.[s4r](G)p.[s4r](U)p.[s4r](A)p.r(C)p.r(G)p.r(C)p.r(G)p.r(G)p.r(A)p.r(A)p.r(U)p.r(A)p.r(C)p.r(U)p.[s4r](U)p.[s4r](C)p.[s4r](G)p.[s4r](A)p.r(T)p.r(T)}|RNA2{r(U)p.r(C)p.r(G)p.r(A)p.r(A)p.r(G)p.r(U)p.r(A)p.r(U)p.r(U)p.r(C)p.r(C)p.r(G)p.r(C)p.r(G)p.r(U)p.r(A)p.r(C)p.r(G)p.r(T)p.r(T)}$$$RNA1{StrandType:ss}|RNA2{StrandType:as}$ | 94.7
RNA1{r(C)p.[fl2r](U)p.r(A)p.[fl2r](A)p.r(G)p.[fl2r](C)p.r(C)p.[fl2r](U)p.r(G)p.[fl2r](U)p.r(U)p.[fl2r](U)p.r(C)p.[fl2r](U)p.r(U)p.[fl2r](C)p.r(C)p.[fl2r](U)p.r(C)p.r(T)p.r(T)}|RNA2{r(G)p.[fl2r](A)p.r(G)p.r(G)p.[fl2r](A)p.[fl2r](A)p.r(G)p.[fl2r](A)p.[fl2r](A)p.[fl2r](A)p.r(C)p.[fl2r](A)p.r(G)p.r(G)p.r(C)p.r(U)p.r(U)p.[fl2r](A)p.r(G)p.r(T)p.r(T)}$$$RNA1{StrandType:ss}|RNA2{StrandType:as}$ | 75
RNA1{r(G)p.[fl2r](C)p.r(A)p.r(G)p.[fl2r](C)p.r(A)p.[fl2r](C)p.r(G)p.r(A)p.[fl2r](C)p.[fl2r](U)p.[fl2r](U)p.[fl2r](C)p.[fl2r](U)p.[fl2r](U)p.[fl2r](C)p.r(A)p.r(A)p.r(G)p.r(T)p.r(T)}|RNA2{r(C)p.r(U)p.r(U)p.r(G)p.r(A)p.r(A)p.r(G)p.r(A)p.r(A)p.r(G)p.r(U)p.r(C)p.r(G)p.r(U)p.r(G)p.r(C)p.r(U)p.r(G)p.r(C)p.r(T)p.r(T)}$$$RNA1{StrandType:ss}|RNA2{StrandType:as}$ | 92
RNA1{[fl2r](G)p.m(A)p.[fl2r](C)p.m(G)p.[fl2r](U)p.m(A)p.[fl2r](A)p.m(A)p.[fl2r](C)p.m(G)p.[fl2r](G)p.m(C)p.[fl2r](C)p.m(A)p.[fl2r](C)p.m(A)p.[fl2r](A)p.m(G)p.[fl2r](U)p.m(U)p.[fl2r](C)}|RNA2{r(A)p.m(C)p.r(U)p.r(U)p.r(G)p.r(U)p.r(G)p.r(G)p.r(C)p.r(C)p.r(G)p.r(U)p.r(U)p.r(U)p.r(A)p.r(C)p.r(G)p.r(U)p.r(C)p.r(G)p.r(C)}$$$RNA1{StrandType:ss}|RNA2{StrandType:as}$ | 46.2
RNA1{r(G)p.r(U)p.r(A)p.r(U)p.r(G)p.r(A)p.r(C)p.r(C)p.r(G)p.r(A)p.r(C)p.r(U)p.r(A)p.r(C)p.r(G)p.r(C)p.r(G)p.r(U)p.r(A)p.r(T)p.r(T)}|RNA2{r(U)p.r(U)p.r(C)p.r(A)p.r(G)p.r(U)p.r(G)p.r(U)p.r(G)p.r(A)p.r(U)p.r(G)p.r(A)p.r(C)p.[una](A)p.r(C)p.r(U)p.r(U)p.r(G)p.r(T)p.r(T)}$$$RNA1{StrandType:ss}|RNA2{StrandType:as}$ | 86
RNA1{r(C)p.r(U)p.m(C)p.r(A)p.r(A)p.r(A)p.r(U)p.m(C)p.r(A)p.r(A)p.r(G)p.r(G)p.r(C)p.r(C)p.r(G)p.r(G)p.r(A)p.r(G)p.r(U)p.r(T)p.r(T)}|RNA2{r(A)p.r(C)p.r(U)p.r(C)p.r(C)p.r(G)p.r(G)p.r(C)p.r(C)p.r(U)p.m(U)p.r(G)p.r(A)p.r(U)p.r(U)p.m(U)p.r(G)p.r(A)p.r(G)p.r(T)p.r(T)}$$$RNA1{StrandType:ss}|RNA2{StrandType:as}$ | 82
RNA1{r(G)p.[hna](A)p.r(C)p.r(G)p.r(U)p.r(A)p.r(A)p.[hna](A)p.r(C)p.r(G)p.r(G)p.r(C)p.r(C)p.[hna](A)p.r(C)p.r(A)p.[hna](A)p.r(G)p.r(U)p.r(U)p.r(C)}|RNA2{r(A)p.r(C)p.r(U)p.r(U)p.r(G)p.r(U)p.r(G)p.r(G)p.r(C)p.r(C)p.r(G)p.r(U)p.r(U)p.r(U)p.r(A)p.r(C)p.r(G)p.r(U)p.r(C)p.r(G)p.r(C)}$$$RNA1{StrandType:ss}|RNA2{StrandType:as}$ | 84.9
RNA1{[s4r](A)p.[s4r](A)p.[s4r](A)p.[s4r](C)p.r(A)p.r(U)p.r(G)p.r(C)p.r(A)p.r(G)p.r(A)p.r(A)p.r(A)p.r(A)p.r(U)p.[s4r](G)p.[s4r](C)p.[s4r](U)p.[s4r](G)p.r(T)p.r(T)}|RNA2{r(C)p.r(A)p.r(G)p.r(C)p.r(A)p.r(U)p.r(U)p.r(U)p.r(U)p.r(C)p.r(U)p.r(G)p.r(C)p.r(A)p.r(U)p.r(G)p.r(U)p.r(U)p.r(U)p.r(T)p.r(T)}$$$RNA1{StrandType:ss}|RNA2{StrandType:as}$ | 79.1
RNA1{r(C)p.m(U)p.r(A)p.r(C)p.r(C)p.r(U)p.r(U)p.r(C)p.r(U)p.r(C)p.r(C)p.r(U)p.r(C)p.r(U)p.r(U)p.r(C)p.r(U)p.r(C)p.r(C)p.r(T)p.r(T)}|RNA2{r(G)p.r(G)p.r(A)p.r(G)p.r(A)p.r(A)p.r(G)p.r(A)p.r(G)p.r(G)p.r(A)p.r(G)p.r(A)p.r(A)p.r(G)p.r(G)p.m(U)p.r(A)p.r(G)p.r(T)p.r(T)}$$$RNA1{StrandType:ss}|RNA2{StrandType:as}$ | 69

Values from the OligoGym collection
